Items are presented alongside their recorded MIC.
Tested on: M. avium intracellulare 4
ASSAY INFO: MIC against MAC strains, agar dilution
Type: cell-based
SETTINGS: S. No. 11 Mai-2, M. avium intracellulare 4; Middle Brook 7H10 + OADC, 37° C., 14-21 days

CHEMICAL SMILES	MIC
C[C@@H]1CN(c2c(F)c(N)c3c(=O)c(C(=O)O)cn(C4CC4)c3c2F)C[C@H](C)N1	1.0 µg/mL
CO[C@H]1/C=C/O[C@@]2(C)Oc3c(C)c(O)c4c(O)c(c(/C=N/N5CCN(C)CC5)c(O)c4c3C2=O)NC(=O)/C(C)=C\C=C\[C@H](C)[C@H](O)[C@@H](C)[C@@H](O)[C@@H](C)[C@H](OC(C)=O)[C@@H]1C	0.25 µg/mL
CC[C@H]1OC(=O)[C@H](C)[C@@H](O[C@H]2C[C@@](C)(OC)[C@@H](O)[C@H](C)O2)[C@H](C)[C@@H](O[C@@H]2O[C@H](C)C[C@H](N(C)C)[C@H]2O)[C@](C)(OC)C[C@@H](C)C(=O)[C@H](C)[C@@H](O)[C@]1(C)O	<0.25 µg/mL
NNC(=O)c1ccncc1	2.0 µg/mL
CCc1cc(C(N)=S)ccn1	4.0 µg/mL

###

Consider the following molecules and their measured MIC readings.
System: M. tuberculosis M-66
ASSAY INFO: MIC against M. tuberculosis strains, agar dilution
Format: cell-based, Mycobacterium tuberculosis
SETTINGS: S. No. 08 Mt-, Middle Brook 7H10 + OADC, 37° C., 14-21 days

CHEMICAL SMILES	SUBJECT OF TEST	CENSOR SYMBOL	MIC [µg/mL]
CO[C@H]1/C=C/O[C@@]2(C)Oc3c(C)c(O)c4c(O)c(c(/C=N/N5CCN(C)CC5)c(O)c4c3C2=O)NC(=O)/C(C)=C\C=C\[C@H](C)[C@H](O)[C@@H](C)[C@@H](O)[C@@H](C)[C@H](OC(C)=O)[C@@H]1C	M. tuberculosis M-66	>	32
CC[C@H]1OC(=O)[C@H](C)[C@@H](O[C@H]2C[C@@](C)(OC)[C@@H](O)[C@H](C)O2)[C@H](C)[C@@H](O[C@@H]2O[C@H](C)C[C@H](N(C)C)[C@H]2O)[C@](C)(OC)C[C@@H](C)C(=O)[C@H](C)[C@@H](O)[C@]1(C)O	M. tuberculosis M-66	=	16
C[C@@H]1CN(c2c(F)c(N)c3c(=O)c(C(=O)O)cn(C4CC4)c3c2F)C[C@H](C)N1	M. tuberculosis M-66	=	32
NNC(=O)c1ccncc1	M. tuberculosis M-66	>	32
CCc1cc(C(N)=S)ccn1	M. tuberculosis M-66	>	32

###

Tested on: E. faecalis 29212
ASSAY INFO: MIC, agar incorporation method
Format: cell-based
SETTINGS: Enterococcus faecalis; S. No. 17, E. faecalis 29212; read-out: MIC

COMPOUND	SUBJECT OF TEST	CENSOR SYMBOL	MIC (µg/mL)
CC(=O)NC[C@H]1CN(c2ccc(N3CCN(c4ccc(C=O)s4)CC3)c(F)c2)C(=O)O1 [Compound No. 2]	E. faecalis 29212	<	0.25
CC(=O)NC[C@H]1CN(c2ccc(N3CCN(c4ccc(C=O)o4)CC3)c(F)c2)C(=O)O1 [Compound No. 3]	E. faecalis 29212	=	0.5
CC(=O)NC[C@H]1CN(c2ccc(N3CCN(c4ccc([N+](=O)[O-])s4)CC3)c(F)c2)C(=O)O1 [Compound No. 1]	E. faecalis 29212	=	0.25
CC(=O)NC[C@H]1CN(c2ccc(N3CCN(c4ccc([N+](=O)[O-])o4)CC3)c(F)c2)C(=O)O1 [Compound No. 4]	E. faecalis 29212	=	8

###

System: M. avium intracellulare 926/98
ASSAY INFO: MIC against MAC strains, agar dilution
Type: cell-based
SETTINGS: S. No. 14 Mai-6, M. avium intracellulare 926/98; Middle Brook 7H10 + OADC, 37° C., 14-21 days
Assign labels as follows, please: fulfilled for MIC below 1 µg/mL; not fulfilled for MIC equal to or exceeding 1 µg/mL.

CHEMICAL SMILES	SUBJECT OF TEST	GROUP LABEL
NNC(=O)c1ccncc1	M. avium intracellulare 926/98	not fulfilled
C[C@@H]1CN(c2c(F)c(N)c3c(=O)c(C(=O)O)cn(C4CC4)c3c2F)C[C@H](C)N1	M. avium intracellulare 926/98	not fulfilled
CO[C@H]1/C=C/O[C@@]2(C)Oc3c(C)c(O)c4c(O)c(c(/C=N/N5CCN(C)CC5)c(O)c4c3C2=O)NC(=O)/C(C)=C\C=C\[C@H](C)[C@H](O)[C@@H](C)[C@@H](O)[C@@H](C)[C@H](OC(C)=O)[C@@H]1C	M. avium intracellulare 926/98	fulfilled
CCc1cc(C(N)=S)ccn1	M. avium intracellulare 926/98	not fulfilled

###

Test system: M. tuberculosis PC
ASSAY INFO: MIC against M. tuberculosis strains, agar dilution
Format: cell-based, Mycobacterium tuberculosis
SETTINGS: S. No. 19 Mt-, Middle Brook 7H10 + OADC, 37° C., 14-21 days
EXPERIMENTAL READOUT: MIC (mg/L)

COMPOUND	RECORDED VALUE
CO[C@H]1/C=C/O[C@@]2(C)Oc3c(C)c(O)c4c(O)c(c(/C=N/N5CCN(C)CC5)c(O)c4c3C2=O)NC(=O)/C(C)=C\C=C\[C@H](C)[C@H](O)[C@@H](C)[C@@H](O)[C@@H](C)[C@H](OC(C)=O)[C@@H]1C [RIF]	0.06
CC[C@H]1OC(=O)[C@H](C)[C@@H](O[C@H]2C[C@@](C)(OC)[C@@H](O)[C@H](C)O2)[C@H](C)[C@@H](O[C@@H]2O[C@H](C)C[C@H](N(C)C)[C@H]2O)[C@](C)(OC)C[C@@H](C)C(=O)[C@H](C)[C@@H](O)[C@]1(C)O [CLA]	8.0
CCc1cc(C(N)=S)ccn1 [ETH]	1.0
NNC(=O)c1ccncc1 [INH]	0.25

###

// values below are reported MIC
System: S. warnerii ST360
ASSAY INFO: MIC, agar incorporation method
Assay type: cell-based
SETTINGS: S. No. 16, S. warnerii ST360

COMPOUND	SUBJECT OF TEST	U	MIC
O=C(NC[C@H]1CN(c2ccc(N3CCN(c4ccc([N+](=O)[O-])s4)CC3)c(F)c2)C(=O)O1)C(Cl)Cl	S. warnerii ST360	µg/mL	0.5
C[C@H](Cl)C(=O)NCC1CN(c2ccc(N3CCN(c4ccc([N+](=O)[O-])s4)CC3)c(F)c2)C(=O)O1 (stereo partly shown)	S. warnerii ST360	µg/mL	4
CC(=O)NC[C@H]1CN(c2ccc(N3CCN(c4ccc([N+](=O)[O-])s4)CC3)cc2)C(=O)O1	S. warnerii ST360	µg/mL	1
CC(=O)NC[C@H]1CN(c2ccc(N3CCN(c4cc(C(OC(C)=O)OC(C)=O)sc4[N+](=O)[O-])CC3)c(F)c2)C(=O)O1	S. warnerii ST360	µg/mL	0.25

###

MIC values, listed per item
System: M. tuberculosis ATCC
ASSAY INFO: MIC against M. tuberculosis strains, agar dilution
Assay type: cell-based, Mycobacterium tuberculosis
SETTINGS: S. No. 01.Mt-, Middle Brook 7H10 + OADC, 37° C., 14-21 days

CHEMICAL SMILES	MIC
NNC(=O)c1ccncc1	0.125 µg/mL
CCc1cc(C(N)=S)ccn1	2.0 µg/mL
CO[C@H]1/C=C/O[C@@]2(C)Oc3c(C)c(O)c4c(O)c(c(/C=N/N5CCN(C)CC5)c(O)c4c3C2=O)NC(=O)/C(C)=C\C=C\[C@H](C)[C@H](O)[C@@H](C)[C@@H](O)[C@@H](C)[C@H](OC(C)=O)[C@@H]1C	0.25 µg/mL
CC[C@H]1OC(=O)[C@H](C)[C@@H](O[C@H]2C[C@@](C)(OC)[C@@H](O)[C@H](C)O2)[C@H](C)[C@@H](O[C@@H]2O[C@H](C)C[C@H](N(C)C)[C@H]2O)[C@](C)(OC)C[C@@H](C)C(=O)[C@H](C)[C@@H](O)[C@]1(C)O	32 µg/mL

###

MIC reference
System: S. aureus ATCC29213
ASSAY INFO: MIC, agar incorporation method
Assay type: cell-based, Staphylococcus aureus
SETTINGS: Staphylococcus aureus; S. No. 2, S. aureus ATCC29213; read-out: MIC

CHEMICAL SMILES	MIC
CC(=O)NC[C@H]1CN(c2ccc(N3CCN(c4ccc(C=O)s4)CC3)c(F)c2)C(=O)O1	1 mg/L
CC(=O)NC[C@H]1CN(c2ccc(N3CCN(c4ccc([N+](=O)[O-])o4)CC3)c(F)c2)C(=O)O1	16 mg/L
CC(=O)NC[C@H]1CN(c2ccc(N3CCN(c4ccc([N+](=O)[O-])s4)CC3)c(F)c2)C(=O)O1	0.25 mg/L
CC(=O)NC[C@H]1CN(c2ccc(N3CCN(c4ccc(C=O)o4)CC3)c(F)c2)C(=O)O1	1 mg/L
